Where these numbers come from: paper PMC7490372

B1: FLAG-GST-SALL4 (wild type) [human] / biotinylated CRBN (wild type) [modified: biotin (added by BirA during cell-free synthesis); biotin (added by BirA during cell-free synthesis)] [human] (parent)
chain 1: MSRRKQAKPQHINSEEDQGEQQPQQQTPEFADAAPAAPAAGELGAPVNHPGNDEVASEDEATVKRLRREETHVCEKCCAEFFSISEFLEHKKNCTKNPPVLIMNDSEGPVPSEDFSGAVLSHQPTSPGSKDCHRENGGSSEDMKEKPDAESVVYLKTETALPPTPQDISYLAKGKVANTNVTLQALRGTKVAVNQRSADALPAPVPGANSIPWVLEQILCLQQQQLQQIQLTEQIRIQVNMWASHALHSSGAGADTLKTLGSHMSQQVSAAVALLSQKAGSQGLSLDALKQAKLPHANIPSATSSLSPGLAPFTLKPDGTRVLPNVMSRLPSALLPQAPGSVLFQSPFSTVALDTSKKGKGKPPNISAVDVKPKDEAALYKHKCKYCSKVFGTDSSLQIHLRSHTGERPFVCSVCGHRFTTKGNLKVHFHRHPQVKANPQLFAEFQDKVAAGNGIPYALSVPDPIDEPSLSLDSKPVLVTTSVGLPQNLSSGTNPKDLTGGSLPGDLQPGPSPESEGGPTLPGVGPNYNSPRAGGFQGSGTPEPGSETLKLQQLVENIDKATTDPNECLICHRVLSCQSSLKMHYRTHTGERPFQCKICGRAFSTKGNLKTHLGVHRTNTSIKTQHSCPICQKKFTNAVMLQQHIRMHMGGQIPNTPLPENPCDFTGSEPMTVGENGSTGAICHDDVIESIDVEEVSSQEAPSSSSKVPTPLPSIHSASPTLGFAMMASLDAPGKVGPAPFNLQRQGSRENGSVESDGLTNDSSSLMGDQEYQSRSPDILETTSFQALSPANSQAESIKSKSPDAGSKAESSENSRTEMEGRSSLPSTFIRAPPTYVKVEVPGTFVGPSTLSPGMTPLLAAQPRRQAKQHGCTRCGKNFSSASALQIHERTHTGEKPFVCNICGRAFTTKGNLKVHYMTHGANNNSARRGRKLAIENTMALLGTDGKRVSEIFPKEILAPSVNVDPVVWNQYTSMLNGGLAVKTNEISVIQSGGVPTLPVSLGATSVVNNATVSKMDGSQSGISADVEKPSATDGVPKHQFPHFLEENKIAVS
chain 2: MAGEGDQQDAAHNMGNHLPLLPAESEEEDEMEVEDQDSKEAKKPNIINFDTSLPTSHTYLGADMEEFHGRTLHDDDSCQVIPVLPQVMMILIPGQTLPLQLFHPQEVSMVRNLIQKDRTFAVLAYSNVQEREAQFGTTAEIYAYREEQDFGIEIVKVKAIGRQRFKVLELRTQSDGIQQAKVQILPECVLPSTMSAVQLESLNKCQIFPSKPVSREDQCSYKWWQKYQKRKFHCANLTSWPRWLYSLYDAETLMDRIKKQLREWDENLKDDSLPSNPIDFSYRVAACLPIDDVLRIQLLKIGSAIQRLRCELDIMNKCTSLCCKQCQETEITTKNEIFSLSLCGPMAAYVNPHGYVHETLTVYKACNLNLIGRPSTEHSWFPGYAWTVAQCKICASHIGWKFTATKKDMSPQKFWGLTRSALLPTIPDTEDEISPDKVILCL

Variants of: B1
Experiment: AlphaScreen (AS-based interaction assay)
Details: with biotinylated CRBN (wild type) [modified: biotin (added by BirA during cell-free synthesis), (S)-thalidomide, last (highest) point of the titration, Log[(S)-Thal (µM)] = 2, signal relative to DMSO = 1, read off a plot

>  <MUTANT CODE>
chain 1 V411K

>  <response (Relative AS signal)>
7

$$$$
>  <MUTANT CODE>
chain 1 V411Q

>  <response (Relative AS signal)>
100

$$$$
>  <MUTANT CODE>
chain 1 V411H

>  <response (Relative AS signal)>
20

$$$$
>  <MUTANT CODE>
chain 1 V411I

>  <response (Relative AS signal)>
75

$$$$
>  <MUTANT CODE>
chain 1 V411R

>  <response (Relative AS signal)>
14

$$$$
